- Test system: Rattus norvegicus
- assay comment: Antihypertensive activity against DOCA-salt induced hypertension in albino rat assessed as reduction in systolic blood pressure at 10 mg/kg, po after 300 mins by tail-cuff method
- Format: functional
- assay setup: Artery, 5 h
Quick rule for you: inhibition in vivo at 10 mg/kg at 30% or higher means 1, lower means -1.

COc1ccc(C2N=C(SCc3ccccc3)NC(C)=C2C(=O)Nc2ccc(Br)cc2)cc1 (stereo not drawn)
-1
COc1ccc(C2N=C(SCc3ccc(Cl)cc3)NC(C)=C2C(=O)Nc2ccc(F)cc2)cc1OC (stereo not drawn)
1
CC1=C(C(=O)Nc2ccc(Br)cc2)C(c2ccc(Cl)cc2Cl)N=C(SCc2ccccc2)N1 (stereo not drawn)
-1
CC1=C(C(=O)Nc2ccc([N+](=O)[O-])cc2)C(c2ccc(Br)cc2)N=C(SCc2ccc(F)cc2)N1 (stereo not drawn)
1
COc1ccc(C2N=C(SCc3ccccc3)NC(C)=C2C(=O)Nc2ccc(F)cc2)cc1OC (stereo not drawn)
-1

In: Form field: inhibition in vivo at 10 mg/kg at least 30%? Entry: CC1=C(C(=O)Nc2ccc([N+](=O)[O-])cc2)C(c2cccc([N+](=O)[O-])c2)N=C(SCc2ccccc2Cl)N1 (stereo not drawn)
Out: -1

====

- Tested on: Rattus norvegicus
- assay comment: Antihypertensive activity against DOCA-salt induced hypertension in albino rat assessed as reduction in systolic blood pressure at 10 mg/kg, po after 180 mins by tail-cuff method
- Assay type: functional
- assay setup: Artery, 3 h
parameter: inhibition in vivo at 10 mg/kg (%)
State just the number; it will be interpreted in %.

Consider the worked cases shown below.
CC1=C(C(=O)Nc2ccc(F)cc2)C(c2ccc([N+](=O)[O-])cc2)N=C(SCc2cccc(Cl)c2)N1 (stereo not drawn)
11.9
CC1=C(C(=O)Nc2ccc([N+](=O)[O-])cc2)C(c2cccc([N+](=O)[O-])c2)N=C(SCc2ccc(F)cc2)N1 (stereo not drawn)
17.5
COc1ccc(C2N=C(SCc3ccc(F)cc3)NC(C)=C2C(=O)Nc2ccc(Br)cc2)cc1 (stereo not drawn)
17
CC1=C(C(=O)Nc2ccc([N+](=O)[O-])cc2)C(c2cccc([N+](=O)[O-])c2)N=C(SCc2ccccc2Cl)N1 (stereo not drawn)
9.3
CC1=C(C(=O)Nc2ccc([N+](=O)[O-])cc2)C(c2ccc(Br)cc2)N=C(SCc2ccc(F)cc2)N1 (stereo not drawn)
17.5
CC1=C(C(=O)Nc2ccc(Br)cc2)C(c2ccc(Cl)cc2Cl)N=C(SCc2ccccc2Cl)N1 (stereo not drawn)
22.2
COc1ccc(C2N=C(SCc3ccc(F)cc3)NC(C)=C2C(=O)Nc2ccc(F)cc2)cc1OC (stereo not drawn)
22.2

Lab note: next compound to report on.
In: Form field: reported inhibition in vivo at 10 mg/kg of CC1=C(C(=O)Nc2ccc(F)cc2)C(c2ccc([N+](=O)[O-])cc2)N=C(SCc2ccccc2Cl)N1 (stereo not drawn)
Out: 12.4

====

- System: Rattus norvegicus
- assay comment: Antihypertensive activity against DOCA-salt induced hypertension in albino rat assessed as reduction in systolic blood pressure at 10 mg/kg, po after 240 mins by tail-cuff method
- Format: functional
- assay setup: Artery, 4 h
parameter: inhibition in vivo at 10 mg/kg (%)
Your answer is read as %, so omit the unit and give the number.

Worked examples follow.
CC1=C(C(=O)Nc2ccc(F)cc2)C(c2ccc([N+](=O)[O-])cc2)N=C(SCc2ccccc2)N1 (centres undefined)
32.3
CC1=C(C(=O)Nc2ccc(Br)cc2)C(c2ccc(Cl)cc2Cl)N=C(SCc2ccc(Cl)cc2)N1 (centres undefined)
32.3
COC(=O)C1=C(C)NC(C)=C(C(=O)OC)C1c1ccccc1[N+](=O)[O-]
25.6

Turning to the following molecule.
In: Which inhibition in vivo at 10 mg/kg value is on record for CC1=C(C(=O)Nc2ccc(F)cc2)C(c2ccc([N+](=O)[O-])cc2)N=C(SCc2ccccc2Cl)N1 (centres undefined) ?
Out: 15.9

Data provenance: ChEMBL document CHEMBL1275301
